system: ATP level in BCG cultures; type: cell-based, M. bovis BCG; conditions: 5 minutes post-exposure; 16× MIC or stated inhibitor concentration
Recorded Endpoint: effect on ATP level versus untreated BCG

Please fill in: effect on ATP level versus untreated BCG reported for O=c1oc2ccccc2c(O)c1Cc1c(O)c2ccccc2oc1=O = No appreciable decrease

Note to self: effect on ATP level versus untreated BCG recorded for C/C=C/C/C=C/CCC(=O)[C@H]1O[C@H]1C(N)=O was No appreciable decrease
